- Assay comment: Toxicity in wild-type zebrafish AB assessed as mortality at 100 ug/ml
- Parameters: species or system Danio rerio
- Experimental parameters: AB wild-type, in vivo

>  <Chemical smiles>
Cc1ccc(NC(=O)c2ccc(CN3CCN(C)CC3)cc2)cc1Nc1nccc(-c2cccnc2)n1

>  <mortality at 100 ug/ml>
100%

$$$$

====

- Assay comment: Stability of the compound at -20 degreeC incubated for one month
- Type: physicochemical
- Experimental parameters: 730.5 h

>  <Molecule>
C=C1/C=C/C(=O)N[C@H](C)C(=O)N[C@@H](C(C)C)C(=O)O[C@@H]([C@H](C)CCCCCC)[C@H](CCOC(=O)OC(C)(C)C)C(=O)N1

>  <Stability>
Stable

$$$$
>  <Molecule>
C#CCCCC(=O)OCC[C@@H]1C(=O)NC(=C)/C=C/C(=O)N[C@H](C)C(=O)N[C@@H](C(C)C)C(=O)O[C@H]1[C@H](C)CCCCCC

>  <Stability>
Stable

$$$$
>  <Molecule>
C=C1/C=C/C(=O)N[C@@H](C)C(=O)N[C@H](C(C)C)C(=O)OC([C@@H](C)CCC)[C@@H](CCOCc2ccc(OC)cc2)C(=O)N1 (single isomer, unassigned)

>  <Stability>
Stable

$$$$
>  <Molecule>
C#CCCCCCCCCC(=O)OCC[C@@H]1C(=O)N[C@@H](CO)/C=C/C(=O)N[C@H](C)C(=O)N[C@@H](C(C)C)C(=O)O[C@H]1[C@H](C)CCCCCC

>  <Stability>
Stable

$$$$
>  <Molecule>
CCCCCC[C@@H](C)[C@@H]1OC(=O)[C@H](C(C)C)NC(=O)[C@@H](C)NC(=O)/C=C/[C@H](CO)NC(=O)[C@H]1CCOCc1ccccc1

>  <Stability>
Stable

$$$$
>  <Molecule>
C=C1/C=C/C(=O)N[C@H](C)C(=O)N[C@@H](C(C)C)C(=O)O[C@@H]([C@H](C)CCCCCC)[C@H](CCOC(=O)CC(c2ccccc2)(c2ccccc2)c2ccccc2)C(=O)N1

>  <Stability>
Stable

$$$$
>  <Molecule>
C=C1/C=C/C(=O)N[C@H](C)C(=O)N[C@@H](C(C)C)C(=O)O[C@@H]([C@H](C)CCCCCC)[C@H](CCOC(=O)C23CC4CC(CC(C4)C2)C3)C(=O)N1

>  <Stability>
Stable

$$$$
>  <Molecule>
CCCCCC[C@@H](C)[C@@H]1OC(=O)[C@H](C(C)C)NC(=O)[C@@H](C)NC(=O)/C=C/[C@H](CO)NC(=O)[C@H]1CCOCc1ccc(OC)cc1

>  <Stability>
Stable

$$$$
>  <Molecule>
C=C1/C=C/C(=O)N[C@H](C)C(=O)N[C@@H](C(C)C)C(=O)O[C@@H]([C@H](C)CCCCCC)[C@H](CCOC(=O)CP(=O)(OCC)OCC)C(=O)N1

>  <Stability>
Stable

$$$$
>  <Molecule>
C=C1/C=C/C(=O)N[C@H](C)C(=O)N[C@@H](C(C)C)C(=O)O[C@@H]([C@H](C)CCCCCC)[C@H](CCOC(=O)CCCCCCCCCCCCCCCCC)C(=O)N1

>  <Stability>
Stable

$$$$
>  <Molecule>
C=C1/C=C/C(=O)N[C@H](C)C(=O)N[C@@H](C(C)C)C(=O)O[C@@H]([C@H](C)CCCCCC)[C@H](CCOCc2ccc(OC)cc2)C(=O)N1

>  <Stability>
Stable

$$$$
>  <Molecule>
C=C1/C=C/C(=O)NCC(=O)N[C@@H](C(C)C)C(=O)O[C@@H]([C@H](C)CCCCCC)[C@H](CCO[Si](c2ccccc2)(c2ccccc2)C(C)(C)C)C(=O)N1

>  <Stability>
Stable

$$$$

From: ChEMBL document CHEMBL3992529
